Values compiled from ChEMBL document CHEMBL1201862.

# Test system: RXF 393
# method: NCI tumour cell line growth inhibition, 48 h
The source made the active and inactive calls. No stated cut-off is given here; in the data, active = GI50 up to about 1.1 µM and inactive = higher.
Labels: active, inactive

>  <compound>
COC(C)(C)C(O)C(O)C[C@H](C)C1CC=C2C1(C)CCC1[C@@]3(C)CCC(OC(C)=O)C(C)(C)C3CC(OC3OC(COC(C)=O)C(O)C(O)C3O)[C@@]21C (some centres not stated)

>  <label.class>
inactive

$$$$
>  <compound>
C=C(C)[C@@]1(O)CCCC[C@@H]1CC(Sc1ccccc1)Sc1ccccc1

>  <label.class>
inactive

$$$$
>  <compound>
COc1ccc(C(=O)/C=C/c2ccc(OCC(=O)N3CCN(c4ccccc4)CC3)cc2)cc1OC

>  <label.class>
inactive

$$$$
>  <compound>
O=C1OCC2=C1C(c1ccc3c(c1)OCO3)c1cc3c(cc1O2)OCO3 (configuration not stated)

>  <label.class>
active

$$$$
>  <compound>
CCOC(=O)C1=c2[nH]c3cccc4cccc(c43)n2C=C(C(C)=O)C1CC(C)=O (configuration not stated)

>  <label.class>
inactive

$$$$
>  <compound>
COc1cc(C=O)cc(/C=N/N=C/c2ccccc2O)c1O

>  <label.class>
inactive

$$$$
>  <compound>
COC1=CC(=O)c2ccc(C(C)C)cc2C1(C)C1=NC(C)(C)CO1 (configuration not stated)

>  <label.class>
inactive

$$$$
